# TARGET OF ASSAY: T1, commercial S100A8/S100A9 Heterodimer (R&D) heterodimer protein (UniProt P05109 1-93; P06702 2-114, limits assumed)
# T1 construct: Bought, purity >95%; also called S100A8/S100A9 heterodimer protein standard; commercial S100A8/S100A9 protein
# T1 sequence (looked up) 1: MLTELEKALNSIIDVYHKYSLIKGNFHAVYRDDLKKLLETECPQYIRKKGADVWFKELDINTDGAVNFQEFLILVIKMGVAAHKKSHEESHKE
# T1 sequence (looked up) 2: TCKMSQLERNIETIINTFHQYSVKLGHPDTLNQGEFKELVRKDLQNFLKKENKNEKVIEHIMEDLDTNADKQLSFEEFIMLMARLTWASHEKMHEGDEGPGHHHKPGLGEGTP
# PROCEDURE DETAILS: ELISA, LEM supernatant, heterodimer coated at 1 µg/mL
# Description: The ELISA reaction conditions were as follows: [0196]
ASSAY ENDPOINT: binding result

BINDER | TEST VALUE
3D8 (antibody, V domains shown, Rabbit monoclonal IgG against S100A8 (rabbit E15229); Biotin-labeled when used as detecting antibody) VH: QSVEESGGRLVTPGTPLTLTCTVSGIDLSTNPMGWVRQAPGKGLEWIGIIFADTGEIYYATWAKGRFTISETSSTTVDLKITSPTAEDTATYFCVRGSPSSANIWGPGTLVTVSS VL: AAVLTQTPSPVSAAVGGTVTISCQSSQSVYNNNWLGWYQQKPGQPPKLLIYRASTLASGVPSRFKGSGSGTQFTFTISDLECDDAATYYCAGTYRRNSDNGFGGGTEVVVKG | binds

These measurements were taken from patent US20250093368A1.
